# MIC listing for each entry below
- System: Pseudomonas aeruginosa
- ASSAY DETAILS: Antibacterial activity against Pseudomonas aeruginosa ATCC 111 27853
- Type: functional
Reply numerically in µg/mL, unit not repeated.

Some solved entries appear below for comparison.
| LINE NOTATION | MIC (µg/mL) |
| --- | --- |
| CN(C)CC(=O)Nc1cc(F)c2c(c1O)C(=O)C1=C(O)[C@]3(O)C(=O)C(C(N)=O)=C(O)[C@@H](N(C)C)[C@@H]3C[C@@H]1C2 | 8 |
| CN(C)[C@@H]1C(O)=C(C(N)=O)C(=O)[C@@]2(O)C(O)=C3C(=O)c4c(O)c(NC(=O)CN5CCC5)cc(F)c4C[C@H]3C[C@@H]12 | 8 |
| CN(C)[C@@H]1C(O)=C(C(N)=O)C(=O)[C@@]2(O)C(O)=C3C(=O)c4c(O)c(NC(=O)CNC(C)(C)C)cc(F)c4C[C@H]3C[C@@H]12 | 16 |

We next turn to a different molecule, shown below.
# input Sample CN(C)[C@@H]1C(O)=C(C(N)=O)C(=O)[C@@]2(O)C(O)=C3C(=O)c4c(O)c(NC(=O)CN5CCCCC5)cc(F)c4C[C@H]3C[C@@H]12 — what was its MIC?
# output 32

* * *

# MIC listing for each entry below
- System: Pseudomonas aeruginosa
- ASSAY DETAILS: Antibacterial activity against Pseudomonas aeruginosa ATCC 111 27853
- Type: functional

# input Find the measured MIC: item CCNCC(=O)Nc1cc(F)c2c(c1O)C(=O)C1=C(O)[C@]3(O)C(=O)C(C(N)=O)=C(O)[C@@H](N(C)C)[C@@H]3C[C@@H]1C2 , target or system Pseudomonas aeruginosa.
# output 8 µg/mL

# input Find the measured MIC: item CN(C)[C@@H]1C(O)=C(C(N)=O)C(=O)[C@@]2(O)C(O)=C3C(=O)c4c(O)c(NC(=O)CN5CC[C@@H](F)C5)cc(F)c4C[C@H]3C[C@@H]12 , target or system Pseudomonas aeruginosa.
# output > 32 µg/mL

# input Find the measured MIC: item CN(C)[C@@H]1C(O)=C(C(N)=O)C(=O)[C@@]2(O)C(O)=C3C(=O)c4c(O)c(NC(=O)CN5Cc6ccccc6C5)cc(F)c4C[C@H]3C[C@@H]12 , target or system Pseudomonas aeruginosa.
# output > 32 µg/mL

# input Find the measured MIC: item CN(C)[C@@H]1C(O)=C(C(N)=O)C(=O)[C@@]2(O)C(O)=C3C(=O)c4c(O)c(NC(=O)CNCC(F)(F)F)cc(F)c4C[C@H]3C[C@@H]12 , target or system Pseudomonas aeruginosa.
# output > 32 µg/mL

# input Find the measured MIC: item CN(C)[C@@H]1C(O)=C(C(N)=O)C(=O)[C@@]2(O)C(O)=C3C(=O)c4c(O)c(NC(=O)CNc5cccnc5)cc(F)c4C[C@H]3C[C@@H]12 , target or system Pseudomonas aeruginosa.
# output > 32 µg/mL

# input Find the measured MIC: item CN(C)[C@@H]1C(O)=C(C(N)=O)C(=O)[C@@]2(O)C(O)=C3C(=O)c4c(O)c(NC(=O)CN5CCCC5)cc(F)c4C[C@H]3C[C@@H]12 [ERAVACYCLINE] , target or system Pseudomonas aeruginosa.
# output 8 µg/mL

# input Find the measured MIC: item CN(C)[C@@H]1C(O)=C(C(N)=O)C(=O)[C@@]2(O)C(O)=C3C(=O)c4c(O)c(NC(=O)CN5CC6CCCC6C5)cc(F)c4C[C@H]3C[C@@H]12 (stereo partly specified) , target or system Pseudomonas aeruginosa.
# output > 32 µg/mL

# input Find the measured MIC: item CN(C)[C@@H]1C(O)=C(C(N)=O)C(=O)[C@@]2(O)C(O)=C3C(=O)c4c(O)c(NC(=O)CN5CC[C@@H](O)C5)cc(F)c4C[C@H]3C[C@@H]12 , target or system Pseudomonas aeruginosa.
# output > 32 µg/mL

* * *

# MIC listing for each entry below
- Tested on: Pseudomonas aeruginosa
- ASSAY DETAILS: Antibacterial activity against Pseudomonas aeruginosa ATCC 111 27853
- Type: functional
Reply numerically in µg/mL, unit not repeated.

Some solved entries appear below for comparison.
| LINE NOTATION | ASSAY READOUT | UNIT LABEL | REPORTED VALUE |
| --- | --- | --- | --- |
| COCCNCC(=O)Nc1cc(F)c2c(c1O)C(=O)C1=C(O)[C@]3(O)C(=O)C(C(N)=O)=C(O)[C@@H](N(C)C)[C@@H]3C[C@@H]1C2 | MIC | µg/mL | 16 |
| CC(C)NCC(=O)Nc1cc(F)c2c(c1O)C(=O)C1=C(O)[C@]3(O)C(=O)C(C(N)=O)=C(O)[C@@H](N(C)C)[C@@H]3C[C@@H]1C2 | MIC | µg/mL | 16 |

# input Sample CN(C)[C@@H]1C(O)=C(C(N)=O)C(=O)[C@@]2(O)C(O)=C3C(=O)c4c(O)cccc4[C@@](C)(O)[C@H]3C[C@@H]12 — what was its MIC?
# output 16

* * *

- ASSAY DETAILS: Elimination half life in Sprague-Dawley rat at 1 mg/kg, iv by LC/MS-MS analysis
- Assay type: ADME, organism-based
- Parameters: dose 1 mg/kg, route intravenous
- MEASUREMENT CONDITIONS: in vivo, read-out: beta t1/2 (converted)
ASSAY READOUT: half-life (h)
Reply numerically in h, unit not repeated.

# input Sample CN(C)[C@@H]1C(O)=C(C(N)=O)C(=O)[C@@]2(O)C(O)=C3C(=O)c4c(O)c(NC(=O)CN5CCCC5)cc(F)c4C[C@H]3C[C@@H]12 — what was its half-life?
# output 4

* * *

- System: Acinetobacter baumannii
- ASSAY DETAILS: Antibacterial activity against Acinetobacter baumannii ATCC 19606 110
- Type: functional
ASSAY READOUT: MIC (µg/mL)
Reply numerically in µg/mL, unit not repeated.

| MOLECULE | REPORTED VALUE |
| --- | --- |
| CN(C)CC(=O)Nc1cc(F)c2c(c1O)C(=O)C1=C(O)[C@]3(O)C(=O)C(C(N)=O)=C(O)[C@@H](N(C)C)[C@@H]3C[C@@H]1C2 | 0.125 |
| CN(C)[C@@H]1C(O)=C(C(N)=O)C(=O)[C@@]2(O)C(O)=C3C(=O)c4c(O)c(NC(=O)CN5CC[C@H](F)C5)cc(F)c4C[C@H]3C[C@@H]12 | 0.125 |

We next turn to a different molecule, shown below.
# input Sample CN(C)[C@@H]1C(O)=C(C(N)=O)C(=O)[C@@]2(O)C(O)=C3C(=O)c4c(O)c(NC(=O)CN5CCCC5)cc(F)c4C[C@H]3C[C@@H]12 [ERAVACYCLINE] — what was its MIC?
# output 0.0312

* * *

- Test system: Klebsiella pneumoniae
- ASSAY DETAILS: Antibacterial activity against Klebsiella pneumoniae ATCC 109 13883
- Format: functional
// NB: equality with 0.5 µg/mL counts as NO; only MIC strictly below is YES

| LINE NOTATION | ANSWER LABEL |
| --- | --- |
| CN(C)[C@@H]1C(O)=C(C(N)=O)C(=O)[C@@]2(O)C(O)=C3C(=O)c4c(O)c(NC(=O)CNc5ccccc5)cc(F)c4C[C@H]3C[C@@H]12 | NO |
| CN(C)[C@@H]1C(O)=C(C(N)=O)C(=O)[C@@]2(O)C(O)=C3C(=O)c4c(O)c(NC(=O)CNC(C)(C)C)cc(F)c4C[C@H]3C[C@@H]12 | NO |
| COC[C@@H]1CCCN1CC(=O)Nc1cc(F)c2c(c1O)C(=O)C1=C(O)[C@]3(O)C(=O)C(C(N)=O)=C(O)[C@@H](N(C)C)[C@@H]3C[C@@H]1C2 | NO |

# input Report whether reported MIC is lower than 0.5 µg/mL (strictly) for CN(C)[C@@H]1C(O)=C(C(N)=O)C(=O)[C@@]2(O)C(O)=C3C(=O)c4c(O)c(NC(=O)CN5CCCC5)cc(F)c4C[C@H]3C[C@@H]12
# output YES

# input Report whether reported MIC is lower than 0.5 µg/mL (strictly) for CC(C)NCC(=O)Nc1cc(F)c2c(c1O)C(=O)C1=C(O)[C@]3(O)C(=O)C(C(N)=O)=C(O)[C@@H](N(C)C)[C@@H]3C[C@@H]1C2
# output NO

# input Report whether reported MIC is lower than 0.5 µg/mL (strictly) for CN(C)[C@@H]1C(O)=C(C(N)=O)C(=O)[C@@]2(O)C(O)=C3C(=O)c4c(O)c(NC(=O)CN5Cc6ccccc6C5)cc(F)c4C[C@H]3C[C@@H]12
# output NO

# input Report whether reported MIC is lower than 0.5 µg/mL (strictly) for CN(C)c1cc(NC(=O)CNC(C)(C)C)c(O)c2c1C[C@H]1C[C@H]3[C@H](N(C)C)C(O)=C(C(N)=O)C(=O)[C@@]3(O)C(O)=C1C2=O
# output YES

# input Report whether reported MIC is lower than 0.5 µg/mL (strictly) for CN(C)[C@@H]1C(O)=C(C(N)=O)C(=O)[C@@]2(O)C(O)=C3C(=O)c4c(O)c(NC(=O)CN5CC[C@@H](F)C5)cc(F)c4C[C@H]3C[C@@H]12
# output NO
